Molecular target: T1, P-selectin (PS-Rg) (Homo sapiens, UniProt P16109 P16109:42-321)
T1 chain: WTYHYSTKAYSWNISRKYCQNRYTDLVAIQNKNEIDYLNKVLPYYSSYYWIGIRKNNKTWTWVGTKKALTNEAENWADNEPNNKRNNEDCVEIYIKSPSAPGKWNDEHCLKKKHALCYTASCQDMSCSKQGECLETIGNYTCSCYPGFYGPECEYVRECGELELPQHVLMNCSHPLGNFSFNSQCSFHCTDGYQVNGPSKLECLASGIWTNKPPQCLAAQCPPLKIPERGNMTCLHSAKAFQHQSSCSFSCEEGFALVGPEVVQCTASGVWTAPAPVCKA
Experiment: filter; 4 C, HSMC
Conditions: tags: human IgG1 Fc fusion (provided by A. Varki); chain copies: 2; label: 32P; hairpin
readout: pKd
Kindly note that pKd refers to -log10 of the concentration in mol/L and answer with the value alone.

binder: F13.48 (ssRNA, 2'-NH2 all C and U) RNA: GGGAGGACGAUGCGGAAAGUUAUGAGUCCGUAUAUCAAGGUCGACAUGUGUGAAUCAGACGACUCGCCCGA
pKd: 6.14

Ask | Please list pKd recorded for the binder F13.32 (ssRNA, 2'-NH2 all C and U) RNA: GGGAGGACGAUGCGGCGCGUAUGUGUGAAAGCGUGUGCACGGAGGCGUCUACAAUCAGACGACUCGCCCGA
Reply | 4.77
